# System: Karpas cells
# protocol_summary: Glo assay of Karpas cells (Table 3; ProteasomeGlo plating scheme)
# Type: cell-based
# details: read-out: Pglo Karpas
Provide the recorded IC50 for the entries that follow.

Recorded IC50, per entry:
# compound, IC50
records = [
    ("COc1ccc(CC(=O)N[C@H]2CC(=O)N3CCCC(CCOc4ccc(C)c(c4)CNC(=O)[C@H](CCc4ccccc4)NC2=O)C3)cc1OC (stereo partly shown)", "< 100 nM"),
    ("COc1ccccc1CC(=O)N[C@H]1CC(=O)N2CCCC(CCOc3ccc(C)c(c3)CNC(=O)[C@H](CCc3ccccc3)NC1=O)C2 (stereo partly shown)", "< 100 nM"),
    ("Cc1ccc2cc1CNC(=O)[C@H](CCc1ccccc1)NC(=O)[C@@H](NC(=O)[C@@H](C)c1ccccc1)CC(=O)N1CCCC(CCO2)C1 (stereo partly shown)", "< 100 nM"),
]

List the reported IC50 of each compound below.
1. Cc1ccc2cc1CNC(=O)[C@H](CCc1ccccc1)NC(=O)[C@@H](NC(=O)c1cc3cc(C(F)(F)F)ccc3n1C)CC(=O)N1CCCC(CCO2)C1 (stereo partly shown)
2. Cc1ccc2cc1CNC(=O)[C@H](C)NC(=O)CCC(=O)N1CCCC(CCO2)C1 (stereo partly shown)
3. Cc1ccc2cc1CNC(=O)[C@H](Cc1c[nH]c3ccccc13)NC(=O)CCC(=O)N1CCCC(CCO2)C1 (stereo partly shown)

Solution:
1. < 100 nM
2. 100 to 500 nM
3. 100 to 500 nM

List the reported IC50 of each compound below.
1. Cc1ccc2cc1CNC(=O)[C@H](CCc1ccccc1)NC(=O)[C@@H](NC(=O)CN1CCCC1)CC(=O)N1CCCC(CCO2)C1 (stereo partly shown)
2. Cc1ccc2cc1CNC(=O)[C@H](CCc1ccccc1)NC(=O)[C@@H](NC(=O)CN1CCOCC1)CC(=O)N1CCCC(CCO2)C1 (stereo partly shown)
3. Cc1ccc2cc1CNC(=O)[C@H](CCc1ccccc1)NC(=O)[C@@H](NC(=O)C1CCCc3ccccc31)CC(=O)N1CCCC(CCO2)C1 (stereo partly shown)
4. COc1cccc(CC(=O)N[C@H]2CC(=O)N3CCCC(CCOc4ccc(C)c(c4)CNC(=O)[C@H](CCc4ccccc4)NC2=O)C3)c1 (stereo partly shown)
5. Cc1ccc2cc1CNC(=O)[C@H](CCc1ccccc1)NC(=O)[C@@H](NC(=O)CC(C)(C)C)CC(=O)N1CCCC(CCO2)C1 (stereo partly shown)
6. Cc1ccc2cc1CNC(=O)[C@H](CCc1ccccc1)NC(=O)[C@@H](NC(=O)[C@H](C)c1ccccc1)CC(=O)N1CCCC(CCO2)C1 (stereo partly shown)
7. Cc1ccc2cc1CNC(=O)[C@H](CCc1ccccc1)NC(=O)CCCC(=O)N1CCCC(CCO2)C1 (stereo partly shown)

Solution:
1: < 100 nM; 2: < 100 nM; 3: < 100 nM; 4: < 100 nM; 5: < 100 nM; 6: < 100 nM; 7: 500 to 1000 nM

====

# Test system: hPMBC
# protocol_summary: Chymotrypsin-like ProteasomeGlo assay in hPBMC
# Type: cell-based
# details: Homo sapiens; read-out: Pglo hPBMC
pIC50: −log10 of the molar value.
reported_property: pIC50

# compound, pIC50
data = [
    ("CC(=O)N[C@H]1CC(=O)N2CCCC(CCOc3ccc(C)c(c3)CNC(=O)C(CCc3cnccn3)NC1=O)C2 (some centres unmarked)", "> 7.00"),
    ("CC(=O)N[C@H]1CCCC(=O)N2CCC2(C)COc2ccc(C)c(c2)CNC(=O)[C@H](CCc2ccccc2)NC1=O (some centres unmarked)", "5.30 to 6.00"),
    ("Cc1ccc2cc1CNC(=O)[C@H](CCc1ccccc1)NC(=O)[C@@H](NC(=O)C1(N)COC1)CC(=O)N1CCCC(CCO2)C1 (some centres unmarked)", "> 7.00"),
]

List the reported pIC50 of each compound below.
1. Cc1ccc2cc1CNC(=O)[C@H](CCc1ccccc1)NC(=O)[C@@H](NC(=O)C1(F)CCNCC1)CC(=O)N1CCCC(CCO2)C1 (some centres unmarked)
2. Cc1cc2cc(c1C)CNC(=O)[C@H](Cc1c[nH]c3ccccc13)NC(=O)CCC(=O)N1CCCC(CCO2)C1 (some centres unmarked)
3. CC(=O)N[C@H]1CC(=O)N2CCCC(CCOc3ccc(C)c(c3)CNC(=O)C(CCc3cccnc3)NC1=O)C2 (some centres unmarked)
4. Cc1ccc2cc1CNC(=O)[C@H](CCc1ccccc1)NC(=O)[C@@H](NC(=O)OCc1ccccc1)CC(=O)N1CC(C)CC(CCO2)C1 (some centres unmarked)

Solution:
1. > 7.00
2. 6.30 to 7.00
3. > 7.00
4. > 7.00

List the reported pIC50 of each compound below.
1. COc1cccc(CC(=O)N[C@H]2CC(=O)N3CCCC(CCOc4ccc(C)c(c4)CNC(=O)[C@H](CCc4ccccc4)NC2=O)C3)c1 (some centres unmarked)
2. CC(=O)N[C@H]1CC(=O)N2CCCC(CCOc3ccc(C)c(c3)CNC(=O)C(c3cn[nH]c3)NC1=O)C2 (some centres unmarked)
3. CC(=O)N[C@H]1CC(=O)N2CCCC(CCOc3ccc(C)c(c3)CNC(=O)C(c3cn(C)cn3)NC1=O)C2 (some centres unmarked)
4. CC(=O)N[C@H]1CCC(=O)N(C)CCCCOc2ccc(C)c(c2)CNC(=O)[C@H](CCc2ccccc2)NC1=O
5. Cc1ccc2cc1CNC(=O)[C@H](CCc1ccccc1)NC(=O)[C@H](NC(=O)OCc1ccccc1)CC(=O)N1CCC[C@H](CCO2)C1
6. CC(=O)N[C@H]1CCCC(=O)N2CC3CC(Oc4ccc(C)c(c4)CNC(=O)[C@H](CCc4ccccc4)NC1=O)C3C2 (some centres unmarked)
7. CC(=O)N[C@H]1CC(=O)N2CCCC(CCOc3cccc(c3)CNC(=O)[C@H](CCc3ccccc3)NC1=O)C2 (some centres unmarked)

Solution:
["> 7.00", "> 7.00", "> 7.00", "6.00 to 6.30", "5.30 to 6.00", "6.30 to 7.00", "> 7.00"]

List the reported pIC50 of each compound below.
1. Cc1ccc2cc1CNC(=O)C(CCc1cnccn1)NC(=O)[C@@H](NC(=O)Cc1ccc(N)cc1F)CC(=O)N1CCCC(CCO2)C1 (some centres unmarked)
2. Cc1ccc2cc1CNC(=O)[C@H](CCc1ccccc1)NC(=O)[C@@H](NC(=O)Cc1cccc(N)c1)CC(=O)N1CCCC(CCO2)C1 (some centres unmarked)
3. Cc1ccc2cc1CNC(=O)[C@H](CCc1ccccc1)NC(=O)[C@@H](NC(=O)Cc1nnc(N)s1)CC(=O)N1CCCC(CCO2)C1 (some centres unmarked)

Solution:
1: > 7.00; 2: > 7.00; 3: > 7.00

List the reported pIC50 of each compound below.
1. Cc1ccc2cc1CNC(=O)[C@H](CCc1ccccc1)NC(=O)[C@@H](NC(=O)OCc1ccccc1)CC(=O)N1CCCC3(CC(C3)O2)C1
2. CNCC(=O)N[C@H]1CC(=O)N2CCCC(CCOc3ccc(C)c(c3)CNC(=O)[C@H](CCc3ccccc3)NC1=O)C2 (some centres unmarked)
3. Cc1ccc2cc1CNC(=O)[C@H](CCc1ccccc1)NC(=O)[C@@H](NC(=O)CCc1ccc(Br)cc1)CC(=O)N1CCCC(CCO2)C1 (some centres unmarked)

Solution:
["6.00 to 6.30", "> 7.00", "> 7.00"]

Values compiled from patent US20240415819A1.
